Taken from patent US20040229298A1.

Biological target: GST-DLG2 PDZ domain 3 (human)
Test: G assay ELISA, E6 PL peptide titrated on constant GST-PDZ
Ends that are not written are not given here.
measure: pEC50
Numbers only, as −log10 of the molar value.

Request: Any idea what pEC50 was measured for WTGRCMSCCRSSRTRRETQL (not fully specified; cysteine pairing not given here) [HPV16 E6 C-terminal PDZ ligand peptide (20 mer, biotinylated), P03126 139-158] ?
Result: 5.80
